- System: L1210 leukemia ip in BDF1 mice, survival T/C
- METHOD SUMMARY: NCI In Vivo Anticancer Drug Screen. Data for tumor model L1210 Leukemia (intraperitoneal) in B6D2F1 (BDF1) mice
- MEASUREMENT SETUP: endpoint: mean survival time; dose: 100.0 mg/kg/injection; schedule: Q04DX003 (ip); vehicle: saline
Inconclusive results and toxic doses are left out. Rule as the data show it: active = T/C of 150% or more; inactive = T/C below 125%.
Log the outcome using a class from y (active), n (inactive)

Some solved cases for reference:
[[record]]
compound = "COc1ccc(N=NN(C(C)=O)c2ccccc2)cc1"
answer_label = "n"

[[record]]
compound = "CNc1nc(Cl)nc(Cl)n1"
answer_label = "n"


State the result this test recorded for "CCCCCCCCCCCCCCCCCC1=NCCN1CCN" .
n

State the result this test recorded for CC(=O)OC1CC2(Cl)C(Cl)=C(Cl)C1(Cl)C2(Cl)Cl (configuration not stated) .
n

---

- Tested on: L1210 leukemia ip in BDF1 mice, survival T/C
- METHOD SUMMARY: NCI In Vivo Anticancer Drug Screen. Data for tumor model L1210 Leukemia (intraperitoneal) in B6D2F1 (BDF1) mice
- MEASUREMENT SETUP: endpoint: mean survival time; dose: 400.0 mg/kg/injection; schedule: Q01DX001 (ip); vehicle: Klucel (hydroxypropylcellulose) (HPC); higher = longer survival
Inconclusive results and toxic doses are left out.
RECORDED METRIC: T/C

Look over these answered cases.
[[record]]
compound = "CCCCCCCCCCCCCCOc1ccc(Sc2ccc([N+](=O)[O-])cc2)cc1"
recorded_result = "89 % of control"

[[record]]
compound = "O=P1(c2ccccc2)CCc2[nH]c3ccc(Br)cc3c2C1 (centres undefined)"
recorded_result = "98 % of control"

[[record]]
compound = "Nc1cc(Cl)c([N+](=O)[O-])c(N)n1"
recorded_result = "108 % of control"


Read the next record carefully.
L1210 leukemia ip in BDF1 mice, survival T/C / T/C / "Nc1nc(N)c2c(n1)SCC(/C=N/O)=N2" : value?
97 % of control

---

Each item that follows carries a reported T/C.
- System: L1210 leukemia ip in BDF1 mice, survival T/C
- METHOD SUMMARY: NCI In Vivo Anticancer Drug Screen. Data for tumor model L1210 Leukemia (intraperitoneal) in B6D2F1 (BDF1) mice
- MEASUREMENT SETUP: endpoint: mean survival time; dose: 100.0 mg/kg/injection; schedule: Q04DX003 (ip); vehicle: saline with Tween-80; higher = longer survival
Inconclusive results and toxic doses are left out.

[[record]]
molecule = "COc1ccc([N+](=O)[O-])cc1NS(=O)(=O)c1c(C)cc(C)cc1C"
recorded_result = "98 % of control"

[[record]]
molecule = "Cc1ccc(CNc2ccc(F)cc2)cc1"
recorded_result = "92 % of control"

[[record]]
molecule = "NC(C(=O)O)c1ccccc1C(=O)O (stereo not given)"
recorded_result = "96 % of control"

[[record]]
molecule = "COc1ccc(C2CCc3cc4c(cc3/C2=N/O)OCO4)cc1OC (stereo not given)"
recorded_result = "90 % of control"

[[record]]
molecule = "O=C(Nc1cccc2ccccc12)C(F)(F)F"
recorded_result = "90 % of control"

[[record]]
molecule = "COC(=O)c1c(Cl)c(Cl)c(C(=O)OC)c(Cl)c1Cl"
recorded_result = "90 % of control"

[[record]]
molecule = "Oc1ccc(C=Nc2ccccc2N=Cc2ccc(O)c(O)c2)cc1O"
recorded_result = "100 % of control"

[[record]]
molecule = "CSC(=O)Oc1ccc([N+](=O)[O-])cc1"
recorded_result = "104 % of control"


// lookup T/C for CCC(CO)NC(=O)/C=C/c1ccc(Cl)cc1 (stereo not given)
110 % of control

// lookup T/C for "COc1cc(C)c(OC)c(CCl)c1C"
97 % of control
